system: HepG2; assay: GSK_TCMDC: Percent inhibition of human HepG2 cell line. Test compounds present at 10uM.; type: functional
quantity.name: Inhibition (%)
Give your result in % as a bare value.

What does the data say about its Inhibition? Entry: CC[C@H]1CN2CC[C@H]1C[C@H]2C(O)c1cc(OC)nc2ccccc12 (some centres undefined) 0

Requested field: Inhibition. Item: "Cl.Fc1ccc2[nH]cc(CCN3CCC(CNCc4ccccc4)CC3)c2c1" 67

Request the reported Inhibition associated with CC(Cc1ccc(NC(=O)CCCc2ccccc2)cc1)NCCc1cccc(Cl)c1.Cl (centres undefined) 12

# lookup: Inhibition of "Oc1ccc(CN2CCN(CCOC(c3ccccc3)c3ccccc3)CC2)cc1Cl" 7

Would you kindly share the measured Inhibition for "O=C(C=Cc1ccc(F)c(Br)c1)N1CCC(CN2CCC(c3c[nH]c4ccccc34)CC2)CC1" ? 39

Give its Inhibition value. Item: "Oc1ccc(Cl)cc1CN1CCC(CCOC(c2ccccc2)c2ccccc2)CC1" 14

Find the recorded Inhibition belonging to COc1cccc(CN2CCC(CCOC(c3ccccc3)c3ccc(Cl)cc3)CC2)c1O (centres undefined) and report it. 22

Endpoint output: Inhibition of "COc1ccc(C=CC(=O)N2CCC(CN3CCC(c4c[nH]c5ccccc45)CC3)CC2)cc1OC" . Value? 20

Inhibition lookup needed for "COCCNCc1cccc(-c2cccc(CN(C(=O)Nc3ccccc3)C3CCN(Cc4ccccc4)CC3)c2)c1.O=C(O)C(F)(F)F" , thanks. 28

// query Inhibition value for entry S=C(NCC1CCCCC1)NC1CCC(CN2CCC(c3c[nH]c4ccccc34)CC2)CC1 (centres undefined) 29

Data request, read-out Inhibition, for CNC(=O)c1ccc2[nH]cc(C3CCN(CC4CCC(NC(=O)/C=C/c5ccccc5Cl)CC4)CC3)c2c1 (centres undefined) 12

Can you look up the measured Inhibition of "CC(C)CNCc1ccc(-c2cccc(CN(C(=O)CCC3CCCC3)C3CCN(Cc4ccccc4)CC3)c2)cc1.O=C(O)C(F)(F)F" for me? 62

Which Inhibition is reported for this compound? O=C(/C=C/c1ccc(Cl)c(Cl)c1)NCCCCCN1C2CCC1CC(c1c[nH]c3ccccc13)C2 (centres undefined) 54

Recorded Inhibition of Br.COC(=O)c1ccc(CC(C)NCC(O)c2cccc(OC(F)(F)F)c2)cc1 (centres undefined) , please. 2

Give the measured Inhibition of O=C(/C=C/c1ccc(Cl)c(Cl)c1)NC1CCC(N2CCC(c3c[nH]c4ccc(O)cc34)CC2)CC1 (centres undefined) . 10

Reported Inhibition, compound O=C(NC1CCC(CN2CCC(c3c[nH]c4ccccc34)CC2)CC1)c1cc(-c2ccc(F)cc2F)ccc1O (centres undefined) : ____ 30

Given the entry "Cc1[nH]c2cc(Cl)ccc2c1C1=CCN(CCN2CCOc3c(Br)cccc3C2=O)CC1.Cl" , report its measured Inhibition. 1

Entry under review: "CCCN(CCC)CCOC(=O)C(OCC)(c1ccccc1)c1ccccc1" . Reported Inhibition? 0

Need Inhibition of "COc1ccc(CCNCc2ccc3c(C)cc(N)nc3c2)cc1" , thanks. 12
